Here, each record is paired with measured pKd data.
# TARGET_OF_ASSAY: HIV-1 NefNL4-3 (Human immunodeficiency virus type 1 group M subtype B, UniProt P03406, A33V/T15A/T51N/V11I)
# ASSAY_SUMMARY: Surface plasmon resonance binding to recombinant full-length Nef (NL4-3)
Schema: pKd number; meaning minus log10 of the concentration expressed in molar units.

See these solved cases before continuing.
1) Oc1c(CCC2CCN(c3ncc(F)cn3)CC2)c(C2CC2)nn1-c1nc2cc(Cl)ccc2[nH]1: 6.32
2) Oc1c(CCc2ccc(F)cc2)c(-c2ccc(C(F)(F)F)cc2)nn1-c1nc2ccncc2[nH]1: 9.24
3) O=C(Cc1ccncc1)N1CCCC(c2nn(-c3nc4ccccc4[nH]3)c(O)c2CCc2ccc(F)cc2)C1 (stereo not shown): 5.62

GET /value?item= COC(=O)N1CCC(CCc2c(-c3ccc(C(F)(F)F)cn3)nn(-c3nc4cc(Br)ccc4[nH]3)c2O)CC1 &field=pKd returns 8.85

GET /value?item= CN(C)S(=O)(=O)N1CCC(c2nn(-c3nc4ccccc4[nH]3)c(O)c2CCc2ccc(F)cc2)CC1 &field=pKd returns 6.10

GET /value?item= O=C(OCc1ccccc1)N1CCC(c2nn(-c3nc4ccncc4[nH]3)c(O)c2CCc2ccc(F)cc2)CC1 &field=pKd returns 7.30

GET /value?item= Oc1c(CC2CCOCC2)c(-c2ccc(F)cc2)nn1-c1nc2ccccc2[nH]1 &field=pKd returns 6.27

###

# TARGET_OF_ASSAY: HIV-1 NefNL4-3 (Human immunodeficiency virus type 1 group M subtype B, UniProt P03406, A33V/T15A/T51N/V11I)
# ASSAY_SUMMARY: Surface plasmon resonance binding to recombinant full-length Nef (NL4-3)
# PARTICULARS: KD, M, Table 4; SPR fit 2-step induced fit, KD = koff/kon × koff2/(koff2 + kon2)
Here, each record is paired with measured pKd data.
Schema: pKd number; meaning minus log10 of the concentration expressed in molar units.

See these solved cases before continuing.
1. Oc1c(CCC2CCNCC2)c(C2CC2)nn1-c1nc2cc(Cl)ccc2[nH]1 [Compound I-554]: 11.50
2. CC(=O)N1CCCC(c2nn(-c3nc4ccccc4[nH]3)c(O)c2CCc2ccc(F)cc2)C1 (stereo not shown) [Compound I-754]: 10.63

GET /value?item= CC(C)COC(=O)N1CCC(c2nn(-c3nc4ccccc4[nH]3)c(O)c2CCc2ccc(F)cc2)CC1 [Compound I-721] &field=pKd returns 4.43

GET /value?item= COC(=O)N1CCC(CCc2c(-c3ccc(C(F)(F)F)cn3)nn(-c3nc4ccccc4[nH]3)c2O)CC1 [Compound I-715] &field=pKd returns 5.60

GET /value?item= CC(C)(C)OC(=O)N1CCC[C@H]1c1nn(-c2nc3ccccc3[nH]2)c(O)c1CCc1ccc(F)cc1 (stereo in doubt) [Compound I-205] &field=pKd returns 6.68

GET /value?item= Oc1c(CCc2ccc(F)cc2)c(C2CCC2)nn1-c1nc2ccccc2[nH]1 [Compound I-129] &field=pKd returns 10.43

GET /value?item= Oc1c(CC2CCOCC2)c(-c2ccc(F)c(F)c2)nn1-c1nc2ccccc2[nH]1 [Compound I-185] &field=pKd returns 5.47
